# subject.of.test: T1, cynomolgus monkey E-selectin extracellular domain with 10 His purification tail (cynomolgus monkey, UniProt P16581 22-554 (human entry))
# T1 construct: also called cynomolgus E-selectin; truncated cynomolgus monkey E-selectin
# T1 chain: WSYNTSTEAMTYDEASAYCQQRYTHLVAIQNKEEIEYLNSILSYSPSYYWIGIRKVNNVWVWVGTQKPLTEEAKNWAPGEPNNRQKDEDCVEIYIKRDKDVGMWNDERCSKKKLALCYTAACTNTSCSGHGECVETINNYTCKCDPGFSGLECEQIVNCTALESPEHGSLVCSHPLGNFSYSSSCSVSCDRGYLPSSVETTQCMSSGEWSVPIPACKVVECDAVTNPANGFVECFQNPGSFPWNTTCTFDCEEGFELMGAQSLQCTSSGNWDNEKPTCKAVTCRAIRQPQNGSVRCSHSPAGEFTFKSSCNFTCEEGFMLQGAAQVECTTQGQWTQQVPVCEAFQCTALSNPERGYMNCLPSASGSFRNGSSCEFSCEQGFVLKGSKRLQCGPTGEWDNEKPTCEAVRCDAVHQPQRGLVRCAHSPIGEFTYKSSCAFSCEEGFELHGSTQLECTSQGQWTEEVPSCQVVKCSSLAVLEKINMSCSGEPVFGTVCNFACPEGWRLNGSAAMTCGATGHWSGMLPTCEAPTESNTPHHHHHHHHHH
# protocol.notes: SPR, antibody captured, E-selectin analyte
Catalogue of binders with associated t½
measured.endpoint: t½ (s)

>>> numeric_readout("optimized anti-E-selectin antibody 1448 (antibody, human IgG1, kappa, V domains shown, effector-null human IgG1, kappa) VH: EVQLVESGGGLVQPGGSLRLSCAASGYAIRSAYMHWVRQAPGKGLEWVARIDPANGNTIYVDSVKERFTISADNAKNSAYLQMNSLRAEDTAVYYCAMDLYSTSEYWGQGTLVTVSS VL: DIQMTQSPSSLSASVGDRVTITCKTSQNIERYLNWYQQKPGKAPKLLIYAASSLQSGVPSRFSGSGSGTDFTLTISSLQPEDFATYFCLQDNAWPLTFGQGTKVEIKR")
46.2
>>> numeric_readout("optimized anti-E-selectin antibody 1284 (antibody, human IgG1, kappa, V domains shown, effector-null human IgG1, kappa) VH: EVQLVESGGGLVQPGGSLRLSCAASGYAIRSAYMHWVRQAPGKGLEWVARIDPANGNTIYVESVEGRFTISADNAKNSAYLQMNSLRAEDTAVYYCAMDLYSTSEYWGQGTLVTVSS VL: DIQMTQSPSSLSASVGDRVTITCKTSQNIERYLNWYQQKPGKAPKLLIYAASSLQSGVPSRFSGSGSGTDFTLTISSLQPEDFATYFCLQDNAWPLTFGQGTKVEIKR")
38.5
>>> numeric_readout("optimized anti-E-selectin antibody 1444 (antibody, human IgG1, kappa, V domains shown, effector-null human IgG1, kappa) VH: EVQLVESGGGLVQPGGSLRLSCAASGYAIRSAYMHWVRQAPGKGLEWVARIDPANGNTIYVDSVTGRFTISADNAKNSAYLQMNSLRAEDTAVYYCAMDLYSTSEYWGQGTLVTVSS VL: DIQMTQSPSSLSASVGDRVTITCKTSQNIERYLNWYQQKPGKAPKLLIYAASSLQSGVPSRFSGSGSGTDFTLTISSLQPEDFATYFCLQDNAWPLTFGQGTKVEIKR")
40.5
>>> numeric_readout("optimized anti-E-selectin antibody 1282 (antibody, human IgG1, kappa, V domains shown, effector-null human IgG1, kappa) VH: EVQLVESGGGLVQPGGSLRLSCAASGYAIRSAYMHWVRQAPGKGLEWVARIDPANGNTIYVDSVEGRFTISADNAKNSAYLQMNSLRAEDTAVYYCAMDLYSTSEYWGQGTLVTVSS VL: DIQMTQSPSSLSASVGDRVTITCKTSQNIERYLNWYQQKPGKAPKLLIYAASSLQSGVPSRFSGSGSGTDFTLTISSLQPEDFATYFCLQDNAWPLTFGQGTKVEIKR")
39.4

Where do the numbers come from? From patent US20240076386A1.
